assay: NCI Yeast Anticancer Drug Screen. Data for the mlh1 rad18 strain (AID 175); conditions: S. cerevisiae mlh1 rad18 strain growth inhibition; at 5.0 µM (retest, dose inferred, filed as 0.5)
The panel holds about 79,000 compounds, 15% with a hit somewhere; the sample as a whole holds those more often. The source made the active and inactive calls. Cut-off read from the data, not from the text of the source: active = growth inhibition above about 70%; inactive = the rest.
Respond only with the outcome that fits, drawn from true (1) (active), false (0) (inactive)

-- ask In this assay, the call recorded for CN(CC(=O)O)c1ncc2c(n1)-c1ccccc1OC2 was what?
-- reply false (0)

-- ask Try the compound O=Nc1cc(-c2ccccc2)c2ccccc2c1O
-- reply false (0)

-- ask Same read-out for CCCCCCn1c(SCC)c2ccccc2c1-c1nc(F)nc(F)n1 ?
-- reply false (0)

-- ask Lookup CC(NNC(=S)N(C)C1CCCCC1)c1cc2ccccc2cn1 (stereo unspecified)
-- reply false (0)

-- ask # repeat for CN(C)CCC(/C=C/c1ccccc1)=N\Nc1c(F)c(F)c(F)c(F)c1F
-- reply false (0)

-- ask Would you mind doing CCOC(=O)c1cnc(SCc2ccc(Cl)cc2Cl)nc1Cl as well?
-- reply false (0)

-- ask Queued: CC(=O)OCC1(O)OCC(OC(C)=O)C(OC(C)=O)C1OC(C)=O (stereo unspecified)
-- reply false (0)

-- ask Param item: O=C(CC(=O)c1ccccc1)CC1(O)CCCCC1
-- reply false (0)

-- ask Record: COc1cc(C2SC(N)=Nc3c2c(C)nn3C(=O)c2ccccc2O)cc(OC)c1OC (stereo unspecified)
-- reply false (0)

-- ask For OC1(C2c3ccccc3-c3ccccc32)c2ccccc2-c2ccccc21 then?
-- reply true (1)

-- ask Next entry: Cc1ccc(S(=O)(=O)N2CCN3C(=O)c4ccccc4C32c2ccc(F)cc2)cc1 (stereo unspecified)
-- reply false (0)

-- ask Would you mind doing ClCc1nnc2n1-c1ccc(Cl)cc1SC2 as well?
-- reply false (0)

-- ask // next record CNC(=O)OC(C)CN1c2ccccc2Sc2ccc(Cl)cc21 (stereo unspecified)
-- reply false (0)

-- ask Now the same for O=C1NC(=O)/C(=C/C=C/c2ccccc2)S1
-- reply false (0)

-- ask Another compound: CC(C)(CN1CCCCC1)C(=O)CC(SCCS(=O)(=O)O)c1ccc(Cl)cc1 (stereo unspecified)
-- reply false (0)

-- ask Please answer likewise for C[n+]1c(-c2cccc(OCCOCCOc3cccc(-c4c5cc(N)ccc5c5ccc(N)cc5[n+]4C)c3)c2)c2cc(N)ccc2c2ccc(N)cc21
-- reply false (0)

-- ask Query N#CSCCSC#N next
-- reply false (0)

-- ask Next compound up: O=C(CSC1=NNC2(C(=O)N1)c1ccccc1-c1ccccc12)NC(=S)Nc1ccccc1
-- reply false (0)

-- ask Moving on to CN(C)CC(CN(C)C)C(=O)c1ccc(Oc2ccccc2)cc1
-- reply true (1)

-- ask Note, next up: COC(=O)c1cc(-c2ccccc2)[nH]c(=O)c1C#N
-- reply false (0)

-- ask What would you report for CCCCCCCN(CCCCCCC)CC(O)c1ccc2ccc3ccccc3c2c1 (stereo unspecified) ?
-- reply false (0)

-- ask Next up: C[N+]12CC3C4CC(C3C1)C2C4 (stereo unspecified)
-- reply false (0)

-- ask Try this compound too: CCN(CC)CCCNc1nccc2c(C)c3[nH]c4ccncc4c3cc12
-- reply false (0)

-- ask # iterate: O=C(NCCc1c(-c2ccccc2)[nH]c2ccccc12)C(F)(F)F
-- reply false (0)

-- ask Do the same for ClC1=C(Cl)C2c3ccccc3C1c1ccccc12 please
-- reply false (0)

-- ask Moving on to CC(=O)Nc1cccc2ccc(C)cc12
-- reply false (0)

-- ask Then CN(C)/N=C(/CC(O)(C(F)(F)F)C(F)(F)F)c1ccc([N+](=O)[O-])cc1 ?
-- reply false (0)

-- ask What would you report for CN(C)c1cccc(F)c1C(=O)NC(=O)Nc1ccc(Cl)cc1 ?
-- reply false (0)

-- ask Cool, now Nc1c(-c2c(Cl)cccc2Cl)[n+]([O-])c2ccccc2[n+]1[O-]
-- reply true (1)

-- ask Request: c1ccc(C[n+]2cccc(-c3cc4ccccc4[nH]3)c2)cc1
-- reply false (0)

-- ask Same thing, different compound: CCN(CC)CCNc1c(C)ccc2cccnc12
-- reply false (0)

-- ask What about this compound? S=C(N/N=C1\C=Cc2ccccc2C1)N/N=C1\C=Cc2ccccc2C1
-- reply false (0)

-- ask Input Nc1ccccc1OCC(O)CN1CCN(Cc2ccccc2)CC1 (stereo unspecified)
-- reply false (0)

-- ask Try this compound next: O=[N+]([O-])/C(C(Cl)=C(Cl)Cl)=C(/Nc1ccccc1)Sc1ccccc1
-- reply true (1)

-- ask Would you kindly repeat that for CN(C)N=Nc1ccc(Cl)c2ncccc12 ?
-- reply false (0)

-- ask Do the same for CC1C(c2ccc3c(c2)OCO3)c2cc3c(cc2OC1N1CCOCC1)OCO3 (stereo unspecified) please
-- reply false (0)

-- ask Item: CCN(CC)C(=O)C1(OC(C)=O)CCCCC1
-- reply false (0)

-- ask Can you check O=[N+]([O-])c1ccc(NCc2ccccc2)c([N+](=O)[O-])c1 next?
-- reply false (0)

-- ask Next: Cc1ccc2nc(-[n+]3cc4ccccc4cc3C)ccc2c1
-- reply false (0)

-- ask What would you report for Cc1cc(N)c2c(c1O)C(=O)c1ccccc1C2=O ?
-- reply false (0)

-- ask Same lookup for CCOC(=O)C(C(C)=O)C1=C(Cl)C(=O)c2ccccc2C1=O (stereo unspecified) , please.
-- reply true (1)
